Biological target: human kinase Mps-1 (Homo sapiens)
Construct: N-terminally GST-tagged human full length recombinant Mps-1 kinase; GST (N)
Sequence (P33981 1-857): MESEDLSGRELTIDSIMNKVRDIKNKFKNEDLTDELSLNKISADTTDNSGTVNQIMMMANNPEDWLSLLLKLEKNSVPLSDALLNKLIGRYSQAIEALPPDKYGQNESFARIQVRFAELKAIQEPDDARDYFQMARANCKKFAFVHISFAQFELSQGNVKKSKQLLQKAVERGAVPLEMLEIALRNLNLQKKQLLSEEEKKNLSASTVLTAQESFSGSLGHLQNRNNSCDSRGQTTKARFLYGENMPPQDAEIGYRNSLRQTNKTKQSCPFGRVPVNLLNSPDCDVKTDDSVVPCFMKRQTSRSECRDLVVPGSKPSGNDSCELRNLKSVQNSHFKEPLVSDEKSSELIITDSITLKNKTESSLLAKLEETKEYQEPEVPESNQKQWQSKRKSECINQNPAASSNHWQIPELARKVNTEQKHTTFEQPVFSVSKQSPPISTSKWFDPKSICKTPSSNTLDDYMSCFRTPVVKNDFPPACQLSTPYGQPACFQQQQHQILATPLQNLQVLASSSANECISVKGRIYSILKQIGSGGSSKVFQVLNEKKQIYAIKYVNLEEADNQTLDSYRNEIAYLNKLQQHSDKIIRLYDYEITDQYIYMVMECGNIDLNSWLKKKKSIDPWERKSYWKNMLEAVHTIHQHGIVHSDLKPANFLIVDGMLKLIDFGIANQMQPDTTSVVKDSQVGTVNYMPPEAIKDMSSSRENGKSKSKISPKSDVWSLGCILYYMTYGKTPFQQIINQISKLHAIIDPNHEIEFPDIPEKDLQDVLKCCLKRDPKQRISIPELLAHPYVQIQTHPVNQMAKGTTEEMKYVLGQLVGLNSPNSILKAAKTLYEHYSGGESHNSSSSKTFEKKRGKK
Assay: Mps-1 kinase assay (TR-FRET)
Details: GST-tagged human full length recombinant Mps-1; 10 μM ATP; 1 μM peptide substrate; 60 min at 22° C.
pIC50: −log10 of the molar value.
metric: pIC50

Some entries whose results are on file:
CC(C)(O)CNc1nc(-c2ccncc2)cn2c(-c3ccc(C(=O)NC4CC4)cc3)cnc12 = 8.30
Cc1ccc(-c2cn3c(-c4ccc(C(=O)NC5CC5)cc4)cnc3c(NCC(C)C)n2)cn1 = 8.54
CC(C)(O)CNc1nc(-c2ccncc2)cn2c(-c3ccc(C(=O)NC4CC4)c(Cl)c3)cnc12 = 7.24
O=C(NC1CC1)c1ccc(-c2cnc3c(NCC4CCCO4)nc(-c4ccn[nH]4)cn23)cc1F (stereo not shown) = 7.02
O=C(NC1CC1)c1ccc(-c2cnc3c(NCCO)nc(-c4ccncc4)cn23)cc1 = 7.95

(P) CC(C)CNc1nc(-c2ccsc2)cn2c(-c3ccc(C(=O)NC4CC4)cc3)cnc12
(Q) CC(C)(O)CNc1nc(-c2ccoc2)cn2c(-c3ccc(C(=O)NC4CC4)c(F)c3)cnc12
// compare measured pIC50, left P , right Q , return larger Provide the label of your selected option as the answer.
P

(P) CC(C)CNc1nc(-c2ccncc2)cn2c(-c3ccc(C(=O)NC4CC4)c(F)c3)cnc12
(Q) CCN1CCC(CNc2nc(C3=CCOCC3)cn3c(-c4ccc(C(=O)NC5CC5)c(C)c4)cnc23)C1 (stereo not shown)
(R) Cc1cc(-c2cnc3c(NCC4CCC(N(C)C)CC4)nc(C4=CCOCC4)cn23)ccc1C(=O)NC1CC1 (stereo not shown)
Order the records, beginning with the lowest pIC50 and ending with the highest. Answer with the labels in sequence, matching the requested order.
Q, R, P
(Q: 6.47, R: 6.70, P: 8.43)

* * *

biological target: human kinase Mps-1 (Homo sapiens); construct: N-terminally GST-tagged human full length recombinant Mps-1 kinase; GST (N); test: Mps-1 kinase assay (TR-FRET); conditions: GST-tagged human full length recombinant Mps-1; 10 μM ATP; 1 μM peptide substrate; 60 min at 22° C.
pIC50: −log10 of the molar value.
metric: pIC50

O=C(NC1CC1)c1ccc(-c2cnc3c(NCCc4nccs4)nc(-c4ccncc4)cn23)cc1 [Example 3-34] = 8.09
CC(C)CNc1nc(-c2ccoc2)cn2c(-c3ccc(C(=O)NC4CC4)c(Cl)c3)cnc12 [Example 1-33] = 7.91
NCC#CCCNc1nc(-c2ccccc2)cn2c(-c3ccc(C(=O)NC4CC4)cc3)cnc12 [Example 4-1] = 7.97
Cn1ccc(CNc2nc(-c3ccncc3)cn3c(-c4ccc(C(=O)NC5CC5)cc4)cnc23)n1 [Example 3-27] = 8.01

(a) Cc1cc(-c2cnc3c(NCC4CC(F)(F)C4)nc(C4=CCOCC4)cn23)ccc1C(=O)NC1CC1 [Example 6-17]
(b) Cc1cc(-c2cnc3c(NCC4CCOC4)nc(C4=CCOCC4)cn23)ccc1C(=O)NC1CC1 (stereo not shown) [Example 6-11]
(c) CC(C)CNc1nc(-c2cncnc2)cn2c(-c3ccc(C(=O)NC4CC4)cc3)cnc12 [Example 1-17]
Order the records, beginning with the lowest pIC50 and ending with the highest. Answer with the labels in sequence, matching the requested order.
c, a, b
(c: 7.78, a: 7.98, b: 8.22)

* * *

target: human kinase Mps-1 (Homo sapiens); construct: N-terminally GST-tagged human full length recombinant Mps-1 kinase; GST (N); assay: Mps-1 kinase assay (TR-FRET); settings: GST-tagged human full length recombinant Mps-1; 10 μM ATP; 1 μM peptide substrate; 60 min at 22° C.
pIC50: −log10 of the molar value.
metric: pIC50

Cn1nccc1CNc1nc(-c2ccncc2)cn2c(-c3ccc(C(=O)NC4CC4)cc3)cnc12 [Example 3-28] = 8.55
CC(C)CNc1nc(C2CCN(C)CC2)cn2c(-c3ccc(C(=O)NC4CC4)cc3)cnc12 [Example 7-6] = 8.41
O=C(NC1CC1)c1ccc(-c2cnc3c(NCCC(F)(F)F)nc(-c4ccncc4)cn23)cc1F [Example 1-53] = 8.42

* * *

target: human kinase Mps-1 (Homo sapiens); construct: N-terminally GST-tagged human full length recombinant Mps-1 kinase; GST (N); test: Mps-1 kinase assay (TR-FRET); conditions: GST-tagged human full length recombinant Mps-1; 10 μM ATP; 1 μM peptide substrate; 60 min at 22° C.
pIC50: −log10 of the molar value.
metric: pIC50

Some entries whose results are on file:
CC(C)CNc1nc(C2CCOCC2)cn2c(-c3ccc(C(=O)NC4CC4)cc3)cnc12 = 8.82
CC(O)CNc1nc(-c2ccncc2)cn2c(-c3ccc(C(=O)NC4CC4)cc3)cnc12 (stereo not drawn) = 8.10
O=C(NC1CC1)c1ccc(-c2cnc3c(NCCCN4CCCC4=O)nc(-c4ccncc4)cn23)cc1 = 7.75

(P) Cc1cc(-c2cnc3c(NCC4CCN(C)C4)nc(C4=CCOCC4)cn23)ccc1C(=O)NC1CC1 (stereo not drawn)
(Q) CC(C)(O)CNc1nc(-c2ccncc2)cn2c(-c3ccc(C(=O)NC4CC4)c(F)c3)cnc12
Just tell me: smaller pIC50 value, P or Q ? Provide the label of your selected option as the answer.
P
(P: 7.11, Q: 7.62)

(A) CC(C)CNc1nc(C#N)cn2c(-c3ccc(C(=O)NC4CC4)cc3)cnc12
(B) Cn1cc(CNc2nc(-c3cccc(CC(N)=O)c3)cn3c(-c4ccc(C(=O)NC5CC5)cc4)cnc23)cn1
(C) CC(C)CNc1nc(C(=O)N2CCCCC2)cn2c(-c3ccc(C(=O)NC4CC4)cc3)cnc12
Rank entries according to their pIC50, from the largest number down. Answer with the labels in sequence, matching the requested order.
B, C, A

* * *

Each record here notes measured IC50.
Molecular target: human kinase Mps-1 (Homo sapiens, UniProt P33981)
Construct: N-terminally GST-tagged human full length recombinant Mps-1 kinase; GST (N)
Experiment: Mps-1 kinase assay (TR-FRET)
Details: GST-tagged human full length recombinant Mps-1; 10 μM ATP; 1 μM peptide substrate; 60 min at 22° C.
Protocol: The human kinase Mps-1 phosphorylates a biotinylated substrate peptide. Detection of the phosphorylated product is achieved by time-resolved fluorescence resonance energy transfer (TR-FRET) from Europium-labelled anti-phospho-Serine/Threonine antibody as donor to streptavidin labelled with cross-linked allophycocyanin (SA-XLent) as acceptor. Compounds are tested for their inhibition of the kinase activity. […]

Some entries whose results are on file:
Cc1cc(-c2cnc3c(NCC(C)(C)O)nc(Sc4ccccc4)cn23)ccc1C(=O)NC1CC1 = < 1 nM
Cc1cc(-c2cnc3c(NCCC(F)(F)F)nc(-c4cn[nH]c4)cn23)ccc1C(=O)NC1CC1 = 4.7 nM

Lab note: next molecule to report on.
Give IC50 for Cc1cc(-c2cnc3c(NCCC(F)(F)F)nc(Sc4ccccc4)cn23)ccc1C(=O)NC1CC1
< 1 nM
